B1: ZNF649 (parent)
chain: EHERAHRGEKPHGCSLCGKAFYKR

- Variants of: B1
- Experiment: protein stability index of a GFP-peptide fusion (GPS, HEK-293T) (PSI 1-6); higher = more stable;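 also: lentivirally expressed fusions sorted by FACS into six bins by GFP to DsRed ratio, PSI derived from sequencing read proportions per bin multiplied by bin number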
- Details: c terminus: a fixed tail appended

Variant Code	protein stability index
K19M	2.01
R24V	2.05
A20I	1.95
G13L	2.2
E3R	1.96
K23V	1.95
A5I	1.34
C17F	3.48
G8H	2.83
R7H	2.31
H2W	1.03
R7M	2.72
C14T	3.91
C17G	4.07
G18Q	1.89
A20F	2.57
E9V	1.42
Y22T	1.93
A20H	3.2
C14L	3.94
C17M	3.87
A5Y	2.58
H6Y	1.61
E9T	1.81
P11H	2.41
G18T	2.34
H12N	1.47
